Numbers sourced from patent US20230279079A1.

system: SARS-CoV-2 spike extracellular domain (SARS-CoV-2, UniProt P0DTC2 14-1213)
assayMethodText: ELISA
property: Kd (nM)
The figure you give is taken to be in nM; do not add the unit.

| binder | valueUnit | Kd |
| --- | --- | --- |
| FN 2C (antibody, V domains shown) VH: EVQLLESGGGVVQPGRSLRLSCAASGFNFNNYGMHWVRQAPGKGLEWVATISYEGSKKFYVDSVKGRFTISKDNSKNTLYLQMNSLRVDDTAFYYCAKRREIFWLGEPPLSDAFDFWGQGTMVTVSS VL: QSVLTQPPSVSGAPGQRVTISCTGSGSNIGAGYDVHWYQFLPGTAPQLLIYGNNNRPSGVPDRFSGSKSGTSASLAITGLQAEDEADYYCQSYDSSLSGSVFGGGTKLTVL | nM | 0.3 |

Qu. Please report the recorded Kd for FM 7B (antibody, V domains shown) VH: EVQLVQSGAEVKKPGASVKVSCKASGYTFTSYAMHWVRQAPGQRLEWMGWINTGNGNTKYSQKFQGRVTITRDTSASTAYMELSSLRSEDTAVYYCARDPTYCSSTSCYPFSWFDPWGQGTLVTVSS VL: NFMLTQPPSVSVAPGQTARITCGGNNIGSKSVHWYQQKPGQAPVLVVYDDSDRPSGIPERFSGSNSGNTATLTISRVEAGDEADYYCQVWDSTGDHSWVFGGGTKLTVL .
Ans. 0.51

Qu. Report Kd for FI 4A (antibody, V domains shown) VH: EVQLVESGGGLVKPGGSLRLSCAASGFTFSRFSMNWVRQAPGKGLEWVSSISSSGSYIYFADSVKGRFTISRDNAKNSLYLQMNSLRAEDTAIYYCATYLFGDSHTYWGQGTLVTVSS VL: QSVLTQPHSVSESPGKTVTISCTGSSGSIASNYVQWYQQRPGSAPTTVIYEDNQRPSGVPDRFSGSIDSSSNSASLTISGLKTEDEADYYCQSYDSSNLHWVFGGGTKLTVL please.
Ans. 0.41

Qu. Fill blank: measured Kd of the binder FD 11A (antibody, V domains shown) VH: EVQLVESGGGVVQPGRSLRLSCAASGFTFSSYGMHWVRQAPGKGLEWVAVIWYDGSNKYYADSVKGRFTISRDNSKNTLYLQMNSLRAEDTAVYYCAKGPDILTGYYNYYYYGMDVWGQGTMVTVSS VL: QSVLTQPPSVSGAPGQRVTISCTGSSSNIGAGYDVHWYQQLPGTAPKLLIYGNSNRPSGVPDRFSGSKSGTSASLAITGLQAEDEADYYCQSYDSSLSGFYVVFGGGTKLTVL is ____.
Ans. 0.4

Qu. Item FJ 10B (antibody, V domains shown) VH: QVQLVQSGAEVKKPGESLRISCKGSGYSFTSYWISWVRQMPGKGLEWMGRIDPSDSYTNYSPSFQGHVTISADKSISTAYLQWSSLKASDTAMYYCARLDPRYGPDYYGMDVWGQGTTVTVSS VL: AIRMTQSPSSLSASVGDRVTITCRASQSISSYLNWYQQKPGKAPKLLIHAASSLQSGVPSRFSGSGSGTDFTLTMSSLQPEDFATYYCQQSYSTPLTFGGGTKVEIR has what recorded Kd?
Ans. 7.57

Qu. What value of measured Kd is listed for FN 8C (antibody, V domains shown) VH: QVQLVESGGGVVQPGRSLRLSCAASGFTFSSYGMHWVRQAPGKGLEWVAVISYDGSNKYYADTVKGRFTISRDNSKNTLYLQMNSLRAEDTAVYYCARERTYYDILTGYRHYYGMDVWGQGTTVTVSS VL: SYELTQPPSVSVAPGQTARITCGGNNIGSKSVHWYQQKPGQAPVLVVYDDSDRPSGIPERFSGSNSGNTATLTISRVEAGDEADYYCQVWDSSSDHWVFGGGTKLTVL ?
Ans. 63.9

Qu. Need Kd, item FG 12C (antibody, V domains shown) VH: EVQLVESGGGLVQPGRSLRLSCAASGFTFDDYAMHWVRQAPGKGLEWVSGISWNSGSIGYADSVKGRFTISRDNAKNSLYLQMNSLRAEDTALYYCAKDMRVHDYGDYYFDYWGQGTLVTVSS VL: SYELTQPPSVSVAPGKTARITCGGNNIGSKSVHWYQQKPGQAPVLVIYYDSDRPSGIPERFSGSNSGNTATLTISRVEAGDEADYYCQVWDSSSDHPVFGGGTKLTVL
Ans. 2.54
